# Protocol: Counterscreen for Identifying a Potential Treatment of Ataxia-Telangiectasia: Hit Validation
# Details: cell-free AlphaLISA/AlphaScreen artifact counterscreen, PBS only, no cells; series mostly up to 76.9 µM
Active and inactive are the calls of the source. Calls come from the whole dose curve; as a rule, active = well fitted activation curve with a large enough effect; inconclusive = small, poorly fitted or top-dose-only effect; inactive = no such curve, though single readings can be large or run the other way.
Field 'call' accepts t for active, f for inactive

Each compound tested received a call. Report the one for CNC(=O)Cc1csc2ccc(C)cc12 .
f

Now the same for COc1ccccc1S(=O)(=O)Nc1ccc(-c2nnc3n2CCCCC3)cc1
f

Now the same for CC1(C)CC2(CCO1)OC(=O)CC2C(=O)Nc1c(Cl)cccc1Cl (configuration not stated)
f

Now the same for CCOC(=O)N1CCN(C(=O)CCc2nc3sc4c(c3c(=O)[nH]2)CCCC4)CC1
f

Now the same for O=C(Nc1cccc([N+](=O)[O-])c1)N1CCCc2ccccc21
f
